Where do these numbers come from? They come from ChEMBL document CHEMBL5058577.

Overview of recorded Population Hoechst High Intensity Objects (%) for various compounds
Test system: Fibroblast
Experiment: Multiplex assay against human fibroblast
Type: toxicity, cell-based
Conditions: 12 h, 1 µM, compound concentration 1 uM, replicate 2
valueType: Population Hoechst High Intensity Objects (%)

• O=C(O)Cc1ccccc1Nc1c(Cl)cccc1Cl = 2
• CC1(COc2ccc3c(c2)ncn3-c2ccc3cccc(N4CCC(N)CC4)c3n2)COC1 = 4
• CCCC(CCC)C(=O)O = 8
• O=S(=O)(c1ccccc1)c1cnc2c(N3CCNCC3)cccc2c1 [INTEPIRDINE] = 4
• C[C@H](NC(=O)c1c(C(F)F)nn(C)c1Oc1cccc(C(F)(F)F)c1)c1ccc(C(=O)O)cc1 = 6
• c1cc(OCCCN2CCCCC2)ccc1CN1CCCCC1 = 7
• CN(C)c1ccnc2sc3c(=O)n(N4CCCCCC4)cnc3c12 = 6
• COc1cc(C(=O)N(CCCc2ccccc2)Cc2ccc(CC(=O)O)cc2)cc(OC)c1C = 4
• CC(C)(C)c1ccc(S(=O)(=O)Nc2ccc(Cl)cc2C(=O)c2cc[n+]([O-])cc2)cc1 = 7

---

Test system: Fibroblast
Test: Multiplex assay against human fibroblast
Assay type: toxicity, cell-based
Conditions: 24 h, 10 µM, compound concentration 10 uM, replicate 2
valueType: Population Mitotic Cells (%)

* CC1(COc2ccc3c(c2)ncn3-c2ccc3cccc(N4CCC(N)CC4)c3n2)COC1 [CRENOLANIB] | 65%
* COc1ccc2c(c1)C(C(=O)N(Cc1ccc(N(C)C)cc1)c1ccc(C(C)C)cc1)CCC2.Cl (centres undefined) | 57%
* CN1CCN2c3ncccc3Cc3ccccc3C2C1 (centres undefined) [MIRTAZAPINE] | 53%
* O=C1COc2nccc(-c3ccccc3F)c2CN1Cc1cc(C(F)(F)F)cc(C(F)(F)F)c1 | 45%
* CC(=O)NCCc1c(Cc2ccccc2)[nH]c2ccccc12 [LUZINDOLE] | 76%
* CN1CCN(c2nc3cc(C(F)(F)F)ccc3n3cccc23)CC1.O=C(O)/C=C\C(=O)O.O=C(O)/C=C\C(=O)O | 36%
* CCCn1c(=O)c2[nH]c(C3CCCC3)nc2n(CCC)c1=O | 79%
* N[C@@]1(C(=O)O)CO[C@H]2[C@H](C(=O)O)[C@H]21 [LY-379268] | 77%
* Cc1ccc(C(C)(O)c2nc3ccccc3s2)c(C)c1 (centres undefined) | 61%
* Cc1ccccc1C(=O)Nc1ccc(C(=O)N2CCCC(N(C)C)c3ccccc32)cc1.Cl (centres undefined) | 42%
* Oc1c(CN2CCN(c3ccccn3)CC2)cc(Cl)c2cccnc12 | 43%
* C[C@H](NC(=O)c1c(C(F)F)nn(C)c1Oc1cccc(C(F)(F)F)c1)c1ccc(C(=O)O)cc1 [PALUPIPRANT] | 61%
* CCCN1CCC[C@@H]2Cc3n[nH]cc3C[C@H]21.Cl [QUINPIROLE HYDROCHLORIDE] | 45%
* CSc1ccccc1N1CCN(CCCCCC(=O)NC2CCCc3ccccc32)CC1.Cl (centres undefined) | 33%
* N#Cc1c(N)nc(SCc2csc(-c3ccc(Cl)cc3)n2)c(C#N)c1-c1ccc(OCCO)cc1 [CAPADENOSON] | 58%
* CN(C)CCCc1cc(C(=O)Nc2ccc(-c3ccncc3)cc2)ccc1O.Cl.Cl | 57%
* Cl.Clc1ccc2nsnc2c1NC1=NCCN1 [TIZANIDINE HYDROCHLORIDE] | 52%
* CC[C@H]1OC(=O)[C@H](C)[C@@H](O[C@H]2C[C@@](C)(OC)[C@@H](O)[C@H](C)O2)[C@H](C)[C@@H](O[C@@H]2O[C@H](C)C[C@H](N(C)C)[C@H]2O)[C@@]2(C)CC(C)=C(O2)[C@H](C)[C@@H](O)[C@]1(C)O | 53%
* Cc1nc2ccc(Oc3ccc(F)cc3)cc2c(=O)n1C[C@H]1CCCN(C(C)C)C1.Cl | 45%
